Kindly state Kd for each of the entries shown.
# target_or_system: T1, Human Serum Albumin (human, UniProt P02768 25-609)
# T1 construct: mature; purified protein on CM5 chips for BIAcore; also called HSA; human SA
# procedure_text: BIAcore SPR
Output spec: scalar in nM, unitless text.

-- ask Which Kd is listed for DOM7h-11-90 (other, Vk dAb; also called DOM7h-11-57 W108R/N106I) VL: DIQMTQSPSSLSASVGDRVTITCRASRPIGTMLSWYQQKPGKAPKLLILAFSRLQSGVPSRFSGSGSGTDFTLTISNLQPEDFATYYCAQAGTHPTTFGQGTKVEIKR ?
-- reply 20.2

-- ask Which Kd is listed for DOM7h-11-87 (other, Vk dAb; also called DOM7h-11-67 W108R/N106I) VL: DIQMTQSPSSLSASVGDRVTITCRASRPIGTMLSWYQQKPGKAPKLLILAFSRLQSGVPSRFSGSGSGTDFTLTISSLQPEDFATYYCAQAGTHHTTFGQGTKVEIKR ?
-- reply 7.39

-- ask Which Kd is listed for DOM7h-11-86 (other, Vk dAb; also called DOM7h-11-65 W108R/N106I) VL: DIQMTQSPSSLSASVGDRVTITCRASRPIGTMLSWYQQKPGKAPKLLILAFSRLQSGVPSRFSGSGSGTDFTLTISSLQPEDVATYYCAQAGTHPTTFGQGTKVEIKR ?
-- reply 10.7

-- ask Which Kd is listed for DOM7h-11-88 (other, Vk dAb; also called DOM7h-11-67 W108R) VL: DIQMTQSPSSLSASVGDRVTITCRASRPIGTMLSWYQQKPGKAPKLLILAFSRLQSGVPSRFSGSGSGTDFTLTISSLQPEDFATYYCAQAGTHHTTFGQGTKVENKR ?
-- reply 6.71
